Here the recorded MIC80 is given for each entry.
- Tested on: Cryptococcus neoformans
- Measurement Protocol: Antifungal activity against Cryptococcus neoformans assessed as growth inhibition after 72 hrs by serial dilution method
- Assay type: functional
Enter your answer as a number in µg/mL; do not include the unit.

// known answers, use as guide
CN(C)c1ccc(-c2cn(C3CCN(CC(O)(Cn4cncn4)c4ccc(F)cc4F)CC3)nn2)cc1 (stereo unspecified) : 1
CCCc1cn(C2CCN(CC(O)(Cn3cncn3)c3ccc(F)cc3F)CC2)nn1 (stereo unspecified) : 0.5
OC(CN1CCC(n2cc(C3CCCC3)nn2)CC1)(Cn1cncn1)c1ccc(F)cc1F (stereo unspecified) : 8
Cc1ccccc1-c1cn(C2CCN(CC(O)(Cn3cncn3)c3ccc(F)cc3F)CC2)nn1 (stereo unspecified) : 0.25
OC(CN1CCC(n2cc(Cc3ccccc3)nn2)CC1)(Cn1cncn1)c1ccc(F)cc1F (stereo unspecified) : 0.5
OC(CN1CCC(n2cc(-c3ccc(Br)cc3)nn2)CC1)(Cn1cncn1)c1ccc(F)cc1F (stereo unspecified) : 0.125
O=C(O)c1cn(C2CCN(CC(O)(Cn3cncn3)c3ccc(F)cc3F)CC2)nn1 (stereo unspecified) : 16
COC(=O)CCCc1cn(C2CCN(CC(O)(Cn3cncn3)c3ccc(F)cc3F)CC2)nn1 (stereo unspecified) : 4
CCc1cn(C2CCN(CC(O)(Cn3cncn3)c3ccc(F)cc3F)CC2)nn1 (stereo unspecified) : 1
COCc1cn(C2CCN(CC(O)(Cn3cncn3)c3ccc(F)cc3F)CC2)nn1 (stereo unspecified) : 0.25

Form entry - test system: Cryptococcus neoformans; read-out: MIC80; compound: OCc1cn(C2CCN(CC(O)(Cn3cncn3)c3ccc(F)cc3F)CC2)nn1 (stereo unspecified)
64

Quick one: OC(Cn1cncn1)(Cn1cncn1)c1ccc(F)cc1F
1

====

- Tested on: Cryptococcus neoformans
- Measurement Protocol: Antifungal activity against Cryptococcus neoformans assessed as growth inhibition after 72 hrs by serial dilution method
- Format: functional
Measured Property: MIC80 (µg/mL)
Enter your answer as a number in µg/mL; do not include the unit.

// known answers, use as guide
O=C(O)CCCc1cn(C2CCN(CC(O)(Cn3cncn3)c3ccc(F)cc3F)CC2)nn1 (centres undefined) : 4
OC(c1ccccc1)c1cn(C2CCN(CC(O)(Cn3cncn3)c3ccc(F)cc3F)CC2)nn1 (centres undefined) : 32

Form entry - test system: Cryptococcus neoformans; read-out: MIC80; compound: OC(CN1CCC(n2cc(-c3ccccc3)nn2)CC1)(Cn1cncn1)c1ccc(F)cc1F (centres undefined)
0.25

Quick one: CC(=O)c1ccc(-c2cn(C3CCN(CC(O)(Cn4cncn4)c4ccc(F)cc4F)CC3)nn2)cc1 (centres undefined)
0.125

Quick one: CC(O)c1cn(C2CCN(CC(O)(Cn3cncn3)c3ccc(F)cc3F)CC2)nn1 (centres undefined)
64

Quick one: OC(CN1CCC(n2cc(C3CC3)nn2)CC1)(Cn1cncn1)c1ccc(F)cc1F (centres undefined)
1

Quick one: COc1cccc(-c2cn(C3CCN(CC(O)(Cn4cncn4)c4ccc(F)cc4F)CC3)nn2)c1 (centres undefined)
0.125

====

- Test system: Cryptococcus neoformans
- Measurement Protocol: Antifungal activity against Cryptococcus neoformans assessed as growth inhibition after 72 hrs by serial dilution method
- Assay type: functional
Measured Property: MIC80 (µg/mL)
Enter your answer as a number in µg/mL; do not include the unit.

// known answers, use as guide
OC(CN1CCC(n2cc(-c3cccnc3)nn2)CC1)(Cn1cncn1)c1ccc(F)cc1F (configuration not stated) : 0.125
CCC(C)n1ncn(-c2ccc(N3CCN(c4ccc(OCC5COC(Cn6cncn6)(c6ccc(Cl)cc6Cl)O5)cc4)CC3)cc2)c1=O (configuration not stated) : 2
OC(CN1CCC(n2cc(-c3ccc(OC(F)(F)F)cc3)nn2)CC1)(Cn1cncn1)c1ccc(F)cc1F (configuration not stated) : 0.125

With those in mind, consider the next molecule.
What MIC80 value was documented for this molecule, OCCCCc1cn(C2CCN(CC(O)(Cn3cncn3)c3ccc(F)cc3F)CC2)nn1 (configuration not stated) ?
32

====

- Tested on: Cryptococcus neoformans
- Measurement Protocol: Antifungal activity against Cryptococcus neoformans assessed as growth inhibition after 72 hrs by serial dilution method
- Assay type: functional
Measured Property: MIC80

// known answers, use as guide
CCOC(=O)c1cn(C2CCN(CC(O)(Cn3cncn3)c3ccc(F)cc3F)CC2)nn1 (stereo not drawn) : > 64 µg/mL
OCCCc1cn(C2CCN(CC(O)(Cn3cncn3)c3ccc(F)cc3F)CC2)nn1 (stereo not drawn) : > 64 µg/mL

With those in mind, consider the next compound.
What MIC80 value was documented for this compound, OCCc1cn(C2CCN(CC(O)(Cn3cncn3)c3ccc(F)cc3F)CC2)nn1 (stereo not drawn) ?
> 64 µg/mL
